Origin of values: ChEMBL document CHEMBL1123961

molecular target: Serotonin receptor 2a and 2c (5HT2A and 5HT2C) (Rattus norvegicus) (UniProt P08909+P14842)
Sequence (P08909 whole entry, looked up): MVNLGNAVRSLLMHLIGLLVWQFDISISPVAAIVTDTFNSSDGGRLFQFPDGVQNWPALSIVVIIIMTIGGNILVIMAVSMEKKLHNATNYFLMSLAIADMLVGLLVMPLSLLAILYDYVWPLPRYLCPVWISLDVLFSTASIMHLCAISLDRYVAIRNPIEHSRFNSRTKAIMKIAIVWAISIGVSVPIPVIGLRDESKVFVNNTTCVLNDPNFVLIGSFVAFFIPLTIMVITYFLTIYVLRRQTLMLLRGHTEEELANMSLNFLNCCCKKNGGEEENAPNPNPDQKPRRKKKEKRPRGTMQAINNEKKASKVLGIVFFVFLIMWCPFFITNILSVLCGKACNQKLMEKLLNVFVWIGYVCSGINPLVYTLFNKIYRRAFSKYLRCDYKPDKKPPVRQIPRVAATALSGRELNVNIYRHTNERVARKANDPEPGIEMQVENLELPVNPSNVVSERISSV
Sequence (P14842 whole entry, looked up): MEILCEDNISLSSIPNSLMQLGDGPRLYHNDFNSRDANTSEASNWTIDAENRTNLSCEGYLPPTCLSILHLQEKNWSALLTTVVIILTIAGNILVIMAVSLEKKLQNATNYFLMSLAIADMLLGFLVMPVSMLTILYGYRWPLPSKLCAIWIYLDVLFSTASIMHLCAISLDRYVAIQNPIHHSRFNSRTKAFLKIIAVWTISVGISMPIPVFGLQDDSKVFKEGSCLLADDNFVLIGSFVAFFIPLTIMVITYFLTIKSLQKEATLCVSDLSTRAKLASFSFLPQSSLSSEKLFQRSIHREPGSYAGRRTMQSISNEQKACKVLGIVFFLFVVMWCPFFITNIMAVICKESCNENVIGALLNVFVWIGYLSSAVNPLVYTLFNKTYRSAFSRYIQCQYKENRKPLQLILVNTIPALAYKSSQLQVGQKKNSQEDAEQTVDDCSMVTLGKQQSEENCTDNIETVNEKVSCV
I would appreciate it if you labelled entries yes when nH is 0.8 or higher, otherwise no.

Exercise: Does nH meet or surpass 0.8 for COc1cc(CC(C)N)c(OC)cc1I (racemic) ?
Key: yes

Exercise: Please give the result for NCCc1c[nH]c2ccc(O)cc12 too.
Key: yes

Exercise: Please give the result for COc1cc(C[C@@H](C)N)c(OC)cc1Br too.
Key: yes

Exercise: Please give the result for O=C(c1ccc(F)cc1)C1CCN(CCn2c(=O)[nH]c3ccccc3c2=O)CC1 too.
Key: yes

Exercise: Please give the result for CN(C)CCCSc1ccccc1NC(=O)/C=C/c1ccccc1 [CINANSERIN] too.
Key: no

Exercise: Please give the result for O=C(CCCN1CCC2(CC1)C(=O)NCN2c1ccccc1)c1ccc(F)cc1 too.
Key: no
